test system: HeLa; test: Cytotoxicity against human HeLa cells; format: cell-based
pIC50: −log10 of the molar value.

>  <Smiles notation>
COc1nc(N)nc2c1ncn2C/C=C/CP(=O)(OCOC(=O)C(C)(C)C)OCOC(=O)C(C)(C)C

>  <pIC50>
4.43

$$$$
>  <Smiles notation>
CC(C)(C)C(=O)OCOP(=O)(C/C=C/Cn1cnc2c(N)nc(N)nc21)OCOC(=O)C(C)(C)C

>  <pIC50>
3.89

$$$$

----------
tested on: Influenza B virus; test: Antiviral activity against Influenza B virus infected in MDCK assessed as inhibition of virus-induced cytopathicity after 3 days; assay type: functional, organism-based
Activity calls are given as the source filed them. The calls are words filed in the database; no cut-off is given here.
Measured quantity: Activity

>  <Smiles notation>
CCCCNc1ncnc2c1ncn2C/C=C/CP(=O)(OCOC(=O)C(C)(C)C)OCOC(=O)C(C)(C)C

>  <Measured quantity>
Activity

>  <Result>
inactive

$$$$
>  <Smiles notation>
CC(C)(C)C(=O)OCOP(=O)(C/C=C/Cn1cnc2c(Cl)ncnc21)OCOC(=O)C(C)(C)C

>  <Measured quantity>
Activity

>  <Result>
inactive

$$$$
>  <Smiles notation>
CC(C)(C)C(=O)OCOP(=O)(C/C=C/Cn1cnc2c(Cl)nc(N)nc21)OCOC(=O)C(C)(C)C

>  <Measured quantity>
Activity

>  <Result>
inactive

$$$$
>  <Smiles notation>
COc1nc(N)nc2c1ncn2C/C=C/CP(=O)(OCOC(=O)C(C)(C)C)OCOC(=O)C(C)(C)C

>  <Measured quantity>
Activity

>  <Result>
inactive

$$$$
>  <Smiles notation>
CC(C)(C)C(=O)OCOP(=O)(C/C=C/Cn1cnc2c(=O)[nH]c(N)nc21)OCOC(=O)C(C)(C)C

>  <Measured quantity>
Activity

>  <Result>
inactive

$$$$
>  <Smiles notation>
CC(C)c1ccc(Nc2nc(N)nc3c2ncn3C/C=C/CP(=O)(OCOC(=O)C(C)(C)C)OCOC(=O)C(C)(C)C)cc1

>  <Measured quantity>
Activity

>  <Result>
inactive

$$$$
>  <Smiles notation>
CC(C)(C)C(=O)OCOP(=O)(C/C=C/Cn1cnc2c(N)ncnc21)OCOC(=O)C(C)(C)C

>  <Measured quantity>
Activity

>  <Result>
inactive

$$$$
>  <Smiles notation>
CC(C)(C)C(=O)OCOP(=O)(C/C=C/Cn1cnc2c(NC3CCCCC3)nc(N)nc21)OCOC(=O)C(C)(C)C

>  <Measured quantity>
Activity

>  <Result>
inactive

$$$$
>  <Smiles notation>
CC(C)(C)C(=O)OCOP(=O)(C/C=C/Cn1cnc2c(=O)n3cc[nH]c3nc21)OCOC(=O)C(C)(C)C

>  <Measured quantity>
Activity

>  <Result>
inactive

$$$$
>  <Smiles notation>
CC(C)(C)C(=O)OCOP(=O)(C/C=C/Cn1cnc2c(NC3CC3)ncnc21)OCOC(=O)C(C)(C)C

>  <Measured quantity>
Activity

>  <Result>
inactive

$$$$
>  <Smiles notation>
CCCCNc1nc(N)nc2c1ncn2C/C=C/CP(=O)(OCOC(=O)C(C)(C)C)OCOC(=O)C(C)(C)C

>  <Measured quantity>
Activity

>  <Result>
inactive

$$$$
>  <Smiles notation>
CC(C)(C)C(=O)OCOP(=O)(C/C=C/Cn1cnc2c(NC3CC3)nc(N)nc21)OCOC(=O)C(C)(C)C

>  <Measured quantity>
Activity

>  <Result>
inactive

$$$$
>  <Smiles notation>
CC(C)(C)C(=O)OCOP(=O)(C/C=C/Cn1cnc2c(=O)[nH]cnc21)OCOC(=O)C(C)(C)C

>  <Measured quantity>
Activity

>  <Result>
inactive

$$$$
>  <Smiles notation>
CC(C)c1ccc(Nc2ncnc3c2ncn3C/C=C/CP(=O)(OCOC(=O)C(C)(C)C)OCOC(=O)C(C)(C)C)cc1

>  <Measured quantity>
Activity

>  <Result>
inactive

$$$$
>  <Smiles notation>
C=CCNc1ncnc2c1ncn2C/C=C/CP(=O)(OCOC(=O)C(C)(C)C)OCOC(=O)C(C)(C)C

>  <Measured quantity>
Activity

>  <Result>
inactive

$$$$
>  <Smiles notation>
CC(C)(C)C(=O)OCOP(=O)(C/C=C/Cn1cnc2c(N)nc(N)nc21)OCOC(=O)C(C)(C)C

>  <Measured quantity>
Activity

>  <Result>
inactive

$$$$
>  <Smiles notation>
CC(C)(C)C(=O)OCOP(=O)(C/C=C/Cn1cnc2c(NC3CCCCC3)ncnc21)OCOC(=O)C(C)(C)C

>  <Measured quantity>
Activity

>  <Result>
inactive

$$$$

----------
test: Cytotoxicity against HEL assessed as minimum compound concentration causes microscopically detectable alteration of cell morphology after 3 days; type: cell-based; conditions: human, HEL cells

>  <Compound>
CC(C)(C)C(=O)OCOP(=O)(C/C=C/Cn1cnc2c(NC3CCCCC3)ncnc21)OCOC(=O)C(C)(C)C

>  <MCC at 72 h>
100 µM

$$$$
>  <Compound>
CCCCNc1nc(N)nc2c1ncn2C/C=C/CP(=O)(OCOC(=O)C(C)(C)C)OCOC(=O)C(C)(C)C

>  <MCC at 72 h>
> 100 µM

$$$$
>  <Compound>
CC(C)(C)C(=O)OCOP(=O)(C/C=C/Cn1cnc2c(N)nc(N)nc21)OCOC(=O)C(C)(C)C

>  <MCC at 72 h>
> 100 µM

$$$$
>  <Compound>
CC(C)(C)C(=O)OCOP(=O)(C/C=C/Cn1cnc2c(NC3CCCCC3)nc(N)nc21)OCOC(=O)C(C)(C)C

>  <MCC at 72 h>
100 µM

$$$$
>  <Compound>
CC(C)(C)C(=O)OCOP(=O)(C/C=C/Cn1cnc2c(Cl)nc(N)nc21)OCOC(=O)C(C)(C)C

>  <MCC at 72 h>
> 100 µM

$$$$
>  <Compound>
CC(C)(C)C(=O)OCOP(=O)(C/C=C/Cn1cnc2c(Cl)ncnc21)OCOC(=O)C(C)(C)C

>  <MCC at 72 h>
100 µM

$$$$
>  <Compound>
CC(C)(C)C(=O)OCOP(=O)(C/C=C/Cn1cnc2c(N)ncnc21)OCOC(=O)C(C)(C)C

>  <MCC at 72 h>
> 100 µM

$$$$
>  <Compound>
Nc1nc2c(ncn2COCCO)c(=O)[nH]1 [ACYCLOVIR]

>  <MCC at 72 h>
> 100 µM

$$$$

----------
tested on: Human alphaherpesvirus 3; test: Antiviral activity against VZV OKA expressing thymidine kinase infected in HEL cells assessed as inhibition of virus-induced cytopathogenicity after 3 days; assay type: functional, cell-based; conditions: Human alphaherpesvirus 3, strain Oka vaccine, 72 h
pEC50: −log10 of the molar value.
Response key: class 1 means pEC50 >= 5; class 0 means pEC50 < 5.

>  <Smiles notation>
CCCCNc1nc(N)nc2c1ncn2C/C=C/CP(=O)(OCOC(=O)C(C)(C)C)OCOC(=O)C(C)(C)C

>  <Answer label>
class 0

$$$$
>  <Smiles notation>
CC(C)(C)C(=O)OCOP(=O)(C/C=C/Cn1cnc2c(N)nc(N)nc21)OCOC(=O)C(C)(C)C

>  <Answer label>
class 1

$$$$
>  <Smiles notation>
CC(C)(C)C(=O)OCOP(=O)(C/C=C/Cn1cnc2c(=O)[nH]c(N)nc21)OCOC(=O)C(C)(C)C

>  <Answer label>
class 1

$$$$
>  <Smiles notation>
CC(C)(C)C(=O)OCOP(=O)(C/C=C/Cn1cnc2c(NC3CCCCC3)ncnc21)OCOC(=O)C(C)(C)C

>  <Answer label>
class 0

$$$$
>  <Smiles notation>
CC(C)(C)C(=O)OCOP(=O)(C/C=C/Cn1cnc2c(NC3CCCCC3)nc(N)nc21)OCOC(=O)C(C)(C)C

>  <Answer label>
class 1

$$$$
>  <Smiles notation>
CC(C)(C)C(=O)OCOP(=O)(C/C=C/Cn1cnc2c(Cl)nc(N)nc21)OCOC(=O)C(C)(C)C

>  <Answer label>
class 1

$$$$
>  <Smiles notation>
CC(C)(C)C(=O)OCOP(=O)(C/C=C/Cn1cnc2c(NC3CC3)ncnc21)OCOC(=O)C(C)(C)C

>  <Answer label>
class 0

$$$$
>  <Smiles notation>
CC(C)(C)C(=O)OCOP(=O)(C/C=C/Cn1cnc2c(Cl)ncnc21)OCOC(=O)C(C)(C)C

>  <Answer label>
class 0

$$$$
>  <Smiles notation>
CC(C)(C)C(=O)OCOP(=O)(C/C=C/Cn1cnc2c(=O)[nH]cnc21)OCOC(=O)C(C)(C)C

>  <Answer label>
class 0

$$$$
>  <Smiles notation>
CC(C)c1ccc(Nc2ncnc3c2ncn3C/C=C/CP(=O)(OCOC(=O)C(C)(C)C)OCOC(=O)C(C)(C)C)cc1

>  <Answer label>
class 0

$$$$
>  <Smiles notation>
CC(C)(C)C(=O)OCOP(=O)(C/C=C/Cn1cnc2c(=O)n3cc[nH]c3nc21)OCOC(=O)C(C)(C)C

>  <Answer label>
class 0

$$$$
>  <Smiles notation>
COc1nc(N)nc2c1ncn2C/C=C/CP(=O)(OCOC(=O)C(C)(C)C)OCOC(=O)C(C)(C)C

>  <Answer label>
class 1

$$$$
>  <Smiles notation>
C=CCNc1ncnc2c1ncn2C/C=C/CP(=O)(OCOC(=O)C(C)(C)C)OCOC(=O)C(C)(C)C

>  <Answer label>
class 0

$$$$
>  <Smiles notation>
CCCCNc1ncnc2c1ncn2C/C=C/CP(=O)(OCOC(=O)C(C)(C)C)OCOC(=O)C(C)(C)C

>  <Answer label>
class 0

$$$$
>  <Smiles notation>
CC(C)(C)C(=O)OCOP(=O)(C/C=C/Cn1cnc2c(NC3CC3)nc(N)nc21)OCOC(=O)C(C)(C)C

>  <Answer label>
class 1

$$$$
>  <Smiles notation>
CC(C)c1ccc(Nc2nc(N)nc3c2ncn3C/C=C/CP(=O)(OCOC(=O)C(C)(C)C)OCOC(=O)C(C)(C)C)cc1

>  <Answer label>
class 0

$$$$
